meta.source: the supplement of paper PMC5998384

# Test system: HeLa Kyoto;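 also: synchronized HeLa Kyoto cells, proteins quantified by TMT10plex mass spectrometry, three biological replicates, mitosis taken 0.5 h after nocodazole release, G1/S directly after double thymidine block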
# test: thermal stability score vs G1/S (z-score of summed log2 fold changes over temperatures); higher = more thermally stable than in G1/S
# condition-set: cell cycle stage: early G1 (4.5 h after nocodazole release)

biopolymer-sequence: MEPGPDGPAASGPAAIREGWFRETCSLWPGQALSLQVEQLLHHRRSRYQDILVFRSKTYGNVLVLDGVIQCTERDEFSYQEMIANLPLCSHPNPRKVLIIGGGDGGVLREVVKHPSVESVVQCEIDEDVIQVSKKFLPGMAIGYSSSKLTLHVGDGFEFMKQNQDAFDVIITDSSDPMGPAESLFKESYYQLMKTALKEDGVLCCQGECQWLHLDLIKEMRQFCQSLFPVVAYAYCTIPTYPSGQIGFMLCSKNPSTNFQEPVQPLTQQQVAQMQLKYYNSDVHRAAFVLPEFARKALNDVS [SRM]
thermal stability score: 0.149
--
biopolymer-sequence: MAANKSKGQSSLALHKVIMVGSGGVGKSALTLQFMYDEFVEDYEPTKADSYRKKVVLDGEEVQIDILDTAGQEDYAAIRDNYFRSGEGFLLVFSITEHESFTATAEFREQILRVKAEEDKIPLLVVGNKSDLEERRQVPVEEARSKAEEWGVQYVETSAKTRANVDKVFFDLMREIRTKKMSENKDKNGKKSSKNKKSFKERCCLL [RALB]
thermal stability score: -0.446
--
biopolymer-sequence: MRLPRRAALGLLPLLLLLPPAPEAAKKPTPCHRCRGLVDKFNQGMVDTAKKNFGGGNTAWEEKTLSKYESSEIRLLEILEGLCESSDFECNQMLEAQEEHLEAWWLQLKSEYPDLFEWFCVKTLKVCCSPGTYGPDCLACQGGSQRPCSGNGHCSGDGSRQGDGSCRCHMGYQGPLCTDCMDGYFSSLRNETHSICTACDESCKTCSGLTNRDCGECEVGWVLDEGACVDVDECAAEPPPCSAAQFCKNANGSYTCEECDSSCVGCTGEGPGNCKECISGYAREHGQCADVDECSLAEKTCVRKNENCYNTPGSYVCVCPDGFEETEDACVPPAEAEATEGESPTQLPSREDL [CRELD2]
thermal stability score: -5.44
--
biopolymer-sequence: MGVEGCTKCIKYLLFVFNFVFWLAGGVILGVALWLRHDPQTTNLLYLELGDKPAPNTFYVGIYILIAVGAVMMFVGFLGCYGAIQESQCLLGTFFTCLVILFACEVAAGIWGFVNKDQIAKDVKQFYDQALQQAVVDDDANNAKAVVKTFHETLDCCGSSTLTALTTSVLKNNLCPSGSNIISNLFKEDCHQKIDDLFSGKLYLIGIAAIVVAVIMIFEMILSMVLCCGIRNSSVY [CD81]
thermal stability score: 0.287
--
biopolymer-sequence: MHKAGLLGLCARAWNSVRMASSGMTRRDPLANKVALVTASTDGIGFAIARRLAQDGAHVVVSSRKQQNVDQAVATLQGEGLSVTGTVCHVGKAEDRERLVATAVKLHGGIDILVSNAAVNPFFGSIMDVTEEVWDKTLDINVKAPALMTKAVVPEMEKRGGGSVVIVSSIAAFSPSPGFSPYNVSKTALLGLTKTLAIELAPRNIRVNCLAPGLIKTSFSRMLWMDKEKEESMKETLRIRRLGEPEDCAGIVSFLCSEDASYITGETVVVGGGTPSRL [DHRS4]
thermal stability score: -0.643
--
biopolymer-sequence: MALPFRKDLEKYKDLDEDELLGNLSETELKQLETVLDDLDPENALLPAGFRQKNQTSKSTTGPFDREHLLSYLEKEALEHKDREDYVPYTGEKKGKIFIPKQKPVQTFTEEKVSLDPELEEALTSASDTELCDLAAILGMHNLITNTKFCNIMGSSNGVDQEHFSNVVKGEKILPVFDEPPNPTNVEESLKRTKENDAHLVEVNLNNIKNIPIPTLKDFAKALETNTHVKCFSLAATRSNDPVATAFAEMLKVNKTLKSLNVESNFITGVGILALIDALRDNETLAELKIDNQRQQLGTAVELEMAKMLEENTNILKFGYQFTQQGPRTRAANAITKNNDLVRKRRVEGDHQ [TMOD3]
thermal stability score: -0.553
--
biopolymer-sequence: MPKRKVSSAEGAAKEEPKRRSARLSAKPPAKVEAKPKKAAAKDKSSDKKVQTKGKRGAKGKQAEVANQETKEDLPAENGETKTEESPASDEAGEKEAKSD [HMGN1]
thermal stability score: -2.25
--
biopolymer-sequence: MKRQGASSERKRARIPSGKAGAANGFLMEVCVDSVESAVNAERGGADRIELCSGLSEGGTTPSMGVLQVVKQSVQIPVFVMIRPRGGDFLYSDREIEVMKADIRLAKLYGADGLVFGALTEDGHIDKELCMSLMAICRPLPVTFHRAFDMVHDPMAALETLLTLGFERVLTSGCDSSALEGLPLIKRLIEQAKGRIVVMPGGGITDRNLQRILEGSGATEFHCSARSTRDSGMKFRNSSVAMGASLSCSEYSLKVTDVTKVRTLNAIAKNILV [CUTC]
thermal stability score: -0.146
--
biopolymer-sequence: MKLLARALRLCEFGRQASSRRLVAGQGCVGPRRGCCAPVQVVGPRADLPPCGACITGRIMRPDDANVAGNVHGGTILKMIEEAGAIISTRHCNSQNGERCVAALARVERTDFLSPMCIGEVAHVSAEITYTSKHSVEVQVNVMSENILTGAKKLTNKATLWYVPLSLKNVDKVLEVPPVVYSRQEQEEEGRKRYEAQKLERMETKWRNGDIVQPVLNPEPNTVSYSQSSLIHLVGPSDCTLHGFVHGGVTMKLMDEVAGIVAARHCKTNIVTASVDAINFHDKIRKGCVITISGRMTFTSNKSMEIEVLVDADPVVDSSQKRYRAASAFFTYVSLSQEGRSLPVPQLVPETEDEKKRFEEGKGRYLQMKAKRQGHAEPQP [ACOT7]
thermal stability score: -2.43
--
biopolymer-sequence: MSYDRAITVFSPDGHLFQVEYAQEAVKKGSTAVGVRGRDIVVLGVEKKSVAKLQDERTVRKICALDDNVCMAFAGLTADARIVINRARVECQSHRLTVEDPVTVEYITRYIASLKQRYTQSNGRRPFGISALIVGFDFDGTPRLYQTDPSGTYHAWKANAIGRGAKSVREFLEKNYTDEAIETDDLTIKLVIKALLEVVQSGGKNIELAVMRRDQSLKILNPEEIEKYVAEIEKEKEENEKKKQKKAS [PSMA7]
thermal stability score: -1.05
